Origin of the recorded values: ChEMBL document CHEMBL1156558

Measured log10 EC50 of individual entries
Tested Target: Peroxisome proliferator-activated receptor delta (Homo sapiens, UniProt Q03181)
Sequence (Q03181 whole entry, the tested form may be a part): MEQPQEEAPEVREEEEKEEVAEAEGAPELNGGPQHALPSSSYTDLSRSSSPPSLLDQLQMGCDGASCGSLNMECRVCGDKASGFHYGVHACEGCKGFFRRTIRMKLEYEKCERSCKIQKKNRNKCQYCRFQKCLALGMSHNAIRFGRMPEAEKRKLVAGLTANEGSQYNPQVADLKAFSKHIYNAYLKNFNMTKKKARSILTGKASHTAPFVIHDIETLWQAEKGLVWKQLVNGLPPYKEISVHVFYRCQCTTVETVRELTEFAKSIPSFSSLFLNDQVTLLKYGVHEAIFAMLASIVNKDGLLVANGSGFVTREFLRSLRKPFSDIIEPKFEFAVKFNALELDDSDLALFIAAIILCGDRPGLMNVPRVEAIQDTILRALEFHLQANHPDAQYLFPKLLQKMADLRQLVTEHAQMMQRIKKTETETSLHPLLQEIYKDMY
Test: Agonist activity at PPARdelta transfected in HEK293 cells by GAL4 transactivation assay
Record value = log10 of EC50 given in µM.

{"columns": ["Compound", "Tested Target", "log10 EC50"],
 "data": [
  ["CCCOc1cc(F)c(CC(CC)C(=O)O)cc1CNC(=O)c1ccc(C23CC4CC(CC(C4)C2)C3)cc1F (racemic)", "Peroxisome proliferator-activated receptor delta (Homo sapiens, UniProt Q03181)", -1.55],
  ["CCCOc1cc(F)c(CC(CC)C(=O)O)cc1CNC(=O)c1ccc(C23CC4CC(CC(C4)C2)C3)cc1 (racemic)", "Peroxisome proliferator-activated receptor delta (Homo sapiens, UniProt Q03181)", -1.22]
]}

Would you kindly share the measured log10 EC50 for CCC(Cc1cc(F)c(OC)c(CNC(=O)c2ccc(C34CC5CC(CC(C5)C3)C4)cc2)c1)C(=O)O (racemic) ?
0.34

Would you kindly share the measured log10 EC50 for CCC(Cc1cc(CNC(=O)c2ccc(C(F)(F)F)cc2)c(OC)cc1F)C(=O)O (racemic) ?
-1.70

Would you kindly share the measured log10 EC50 for CCCOc1cc(F)c(C[C@@H](CC)C(=O)O)cc1CNC(=O)c1ccc(C23CC4CC(CC(C4)C2)C3)cc1F ?
-0.74

Would you kindly share the measured log10 EC50 for CCOc1cc(F)c(CC(CC)C(=O)O)cc1CNC(=O)c1ccc(C23CC4CC(CC(C4)C2)C3)cc1 (racemic) ?
-1.03

Would you kindly share the measured log10 EC50 for CCOc1cc(F)c(CC(CC)C(=O)O)cc1CNC(=O)c1ccc(C23CC4CC(CC(C4)C2)C3)cc1F (racemic) ?
-1.26

Would you kindly share the measured log10 EC50 for CCC(Cc1ccc(OC)c(CNC(=O)c2ccc(C34CC5CC(CC(C5)C3)C4)cc2)c1)C(=O)O (racemic) ?
-0.03
